assay: viability loss in pontine glioma line – cell-based, SU-DIPG-IV, MIPE4.0, CellTiter-Glo, qHTS, dose response (AID 1347063); conditions: CellTiter-Glo ATP luminescence;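 further: compound exposure lasted 48 hours before the viability readout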
Results filed as inconclusive are left out. Calls of active or inactive are those of the source. Cut-off not given; nearly all actives show AC50 up to about 30 µM.
Outcome codes: y (active), n (inactive)

* C[C@@H](NCc1cc2ccccc2[nH]1)c1cccc2ccccc12 | n
* COc1cc(C(=O)N2CCC(N3CCN(C)CC3)CC2)ccc1Nc1ncc2c(n1)N(C)c1ccccc1C(=O)N2C | y
* Oc1ccc(-c2ccc(-c3cc(Nc4cccc(CNC5CC5)c4)n[nH]3)cc2)c(O)c1 | y
* O=C1NC(=O)/C(=C/c2ccc3c(c2)OC(F)(F)O3)S1 | n
* CNCc1ccc(-c2[nH]c3cc(F)cc4c3c2CCNC4=O)cc1 | n
* Cc1ccc2c(c1)c1c(n2CCc2ccc(C)nc2)CCN(C)C1 | n
* COC1=C2C[C@@H](C)C[C@H](OC)[C@H](O)[C@@H](C)/C=C(\C)[C@H](OC(N)=O)[C@@H](OC)/C=C/C=C(\C)C(=O)NC(=CC1=O)C2=O | y
* C=C1/C(=C\C=C2/CCC[C@]3(C)[C@@H]([C@H](C)/C=C/[C@H](C)C(C)C)CC[C@@H]23)C[C@@H](O)C[C@@H]1O | y
* C=C1C[C@@]2(O)O[C@@]3(C[C@H]2C(C)C)[C@@H](C)CC[C@@H]13 | n
* Oc1cccc(-c2nc(N3CCOCC3)c3oc4ncccc4c3n2)c1 | y
* N#Cc1ccc(COC[C@H]2O[C@@H](n3c(NCc4ccc(Cl)c(Cl)c4)nc4c(N)ncnc43)[C@H](O)[C@@H]2O)cc1 | y
* CCCCCCCCCC(=O)N[C@@H](Cc1c[nH]c2ccccc12)C(=O)N[C@H](CC(N)=O)C(=O)N[C@@H](CC(=O)O)C(=O)N[C@@H]1C(=O)NCC(=O)N[C@@H](CCCN)C(=O)N[C@@H](CC(=O)O)C(=O)N[C@H](C)C(=O)N[C@@H](CC(=O)O)C(=O)NCC(=O)N[C@H](CO)C(=O)N[C@@H]([C@@H](C)CC(=O)O)C(=O)N[C@@H](CC(=O)c2ccccc2N)C(=O)O[C@@H]1C | n
* COc1cc2c(cc1OC)[C@@H]1Cc3ccc(OC)c(OC)c3CN1CC2 | n
* COC[C@H](NC(=O)c1cnc(C)s1)C(=O)N[C@@H](COC)C(=O)N[C@@H](Cc1ccccc1)C(=O)[C@@]1(C)CO1 | y
* Cn1cc(C[C@@H](N)C(=O)O)c2ccccc21 | n
* CC(C)(O)Cn1c(NC(=O)c2ccc(-c3cn[nH]c3)s2)nc2cc(CN3CCOCC3)ccc21 | y
